Source: patent US20200071351A1

# Tested on: HeLa cells
# procedureDetails: Inhibition of cellular proliferation, SRB assay, HeLa cells
# Assay type: cell-based
# assayContext: HeLa cells, SRB assay; parent taccalonolide; read-out: IC50
Exercise: state measured pIC50 for each of the compounds provided.
// field semantics: pIC50 = negative decimal log of concentration (mol/L)

INPUT: # get_value(readout='pIC50', item= CC(=O)O[C@@H]1[C@H]2[C@@H]3C(=O)C(O)=C4C[C@@H]5O[C@@H]5[C@H](OC(C)=O)[C@]4(C)[C@H]3[C@H](OC(C)=O)[C@H](OC(C)=O)[C@]2(C)[C@@H]2[C@@H]1[C@]1(C)C(=C[C@H]2C)OC(=O)[C@@]1(C)O [Taccalonolide AD] )
OUTPUT: 5.46

INPUT: Would you mind telling me what pIC50 value was observed for CC(=O)O[C@H]1[C@@H]2[C@H]([C@H](C)C=C3OC(=O)[C@@](C)(O)[C@@]32C)[C@]2(C)[C@@H]1C1=C(O)C(=O)[C@H]3C[C@@H]4O[C@@H]4[C@H](OC(C)=O)[C@]3(C)[C@H]1[C@H](OC(C)=O)[C@@H]2OC(C)=O [Taccalonolide H2] ?
OUTPUT: 6.14

INPUT: Name the reported pIC50 value associated with the compound CC(=O)O[C@H]1C[C@H]2[C@H]([C@@H]3[C@@H](O)[C@@H]4[C@H]([C@H](C)C=C5OC(=O)[C@@](C)(O)[C@@]54C)[C@]31C)[C@@H](O)C(=O)[C@H]1C[C@@H]3O[C@@H]3[C@H](O)[C@@]12C [Taccalonolide AN]
OUTPUT: 6.00
